Taken from patent US12570675B2.

target_or_system: Proteasome caspase-like activity (S26 protein from RPMI8226 cells) (Homo sapiens (Human))
Sequence (P28072 whole entry): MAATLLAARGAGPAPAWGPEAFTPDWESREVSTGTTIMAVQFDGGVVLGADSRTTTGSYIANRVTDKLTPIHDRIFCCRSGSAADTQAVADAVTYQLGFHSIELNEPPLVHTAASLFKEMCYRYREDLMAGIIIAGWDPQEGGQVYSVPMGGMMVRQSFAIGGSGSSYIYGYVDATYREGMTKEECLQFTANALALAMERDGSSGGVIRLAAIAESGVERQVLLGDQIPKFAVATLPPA
// values below are reported IC50

Known results for compounds:
>  <compound>
CC(C)C[C@H](NC(=O)C1(Cc2ccccc2)CC(CNC(=O)c2cccc3c2CCCC3)=NO1)B(O)O (stereo partly shown)

>  <target_or_system>
Proteasome caspase-like activity (S26 protein from RPMI8226 cells) (Homo sapiens (Human))

>  <reported_metric>
IC50

>  <experimental_result>
> 1000 nM

$$$$
>  <compound>
Cc1cc(C(=O)NCC2=NOC(Cc3ccccc3)(C(=O)N[C@@H](CC(C)C)B(O)O)C2)n(C(C)C)n1 (stereo partly shown)

>  <target_or_system>
Proteasome caspase-like activity (S26 protein from RPMI8226 cells) (Homo sapiens (Human))

>  <reported_metric>
IC50

>  <experimental_result>
> 2500 nM

$$$$
>  <compound>
Cc1nc(C(=O)NCC2=NOC(Cc3ccccc3)(C(=O)N[C@@H](CC(C)C)B(O)O)C2)c(Cl)s1 (stereo partly shown)

>  <target_or_system>
Proteasome caspase-like activity (S26 protein from RPMI8226 cells) (Homo sapiens (Human))

>  <reported_metric>
IC50

>  <experimental_result>
> 1000 nM

$$$$
>  <compound>
CC(C)C[C@H](NC(=O)C1(Cc2ccccc2)CC(CNC(=O)c2cccc3cccnc23)=NO1)B(O)O (stereo partly shown)

>  <target_or_system>
Proteasome caspase-like activity (S26 protein from RPMI8226 cells) (Homo sapiens (Human))

>  <reported_metric>
IC50

>  <experimental_result>
> 500 nM

$$$$
>  <compound>
Cc1cccc(COCC2=NOC(Cc3ccccc3)(C(=O)N[C@@H](CC(C)C)B(O)O)C2)n1 (stereo partly shown)

>  <target_or_system>
Proteasome caspase-like activity (S26 protein from RPMI8226 cells) (Homo sapiens (Human))

>  <reported_metric>
IC50

>  <experimental_result>
> 250 nM

$$$$
>  <compound>
CC(C)C[C@H](NC(=O)C1(Cc2ccccc2)CC(CNC(=O)c2cccn3ccnc23)=NO1)B(O)O (stereo partly shown)

>  <target_or_system>
Proteasome caspase-like activity (S26 protein from RPMI8226 cells) (Homo sapiens (Human))

>  <reported_metric>
IC50

>  <experimental_result>
> 250 nM

$$$$

Report IC50 for O=C(N[C@@H](Cc1ccccc1)B(O)O)C1(Cc2ccccc2)CC(COCc2ccccc2)=NO1 (stereo partly shown) please.
> 2500 nM

Also CC(C)C[C@H](NC(=O)C1(Cc2ccccc2)CC(CNC(=O)c2c[nH]c3ccccc23)=NO1)B(O)O (stereo partly shown) , if possible.
> 500 nM

Another compound to check: Cc1ccccc1CC1(C(=O)N[C@@H](CC(C)C)B(O)O)CC(CNC(=O)c2nccc3ccccc23)=NO1 (stereo partly shown)
> 500 nM

Would you mind doing CC(C)C[C@H](NC(=O)C1(Cc2ccccc2)CC(CNC(=O)c2cccc(Cl)n2)=NO1)B(O)O (stereo partly shown) as well?
> 500 nM

And the next one, Cc1cnc(C(=O)NCC2=NOC(Cc3ccccc3)(C(=O)N[C@@H](CC(C)C)B(O)O)C2)cn1 (stereo partly shown) ?
> 250 nM

Cool, now Cc1cc(C(=O)NCC2=NOC(Cc3ccccc3)(C(=O)N[C@@H](CC(C)C)B(O)O)C2)n(C2CCCC2)n1 (stereo partly shown)
> 1000 nM

And the next one, Cc1cccc(CC2(C(=O)N[C@@H](CC(C)C)B(O)O)CC(CNC(=O)c3nccc4ccccc34)=NO2)c1 (stereo partly shown) ?
> 500 nM
